LSD1 (Homo sapiens): recorded pIC50 for assorted compounds
pIC50: −log10 of the molar value.

# count of solved cases: 3
pIC50 reported for this compound CO[C@H]1CCN(c2ccc(-n3nc(NC[C@H]4CCC[C@H](N)C4)cc3-c3ccc(C#N)c(F)c3)c(F)c2)C1 : > 6.30

pIC50 reported for this compound N#Cc1ccc(-c2cc(NCC34CCN(CC3)CC4)nn2-c2ccc(N3CC4CC3CS4(=O)=O)cc2)cc1F (stereo not shown) [Example 121, 2,2,2-trifluoroacetate] : > 6.30

pIC50 reported for this compound Cn1cc2cc(-n3nc(NC[C@@H]4CCNC4)cc3-c3ccc(C#N)c(F)c3)ccc2n1 [Example 21R] : 6.00 to 6.30

Further cases:
pIC50 reported for this compound COc1ccc(-n2nc(NC[C@H]3C[C@H](N)C3)cc2-c2ccc(C#N)c(F)c2)cc1 : 5.00 to 6.00
